method notes: Drug uptake in human MG63 cells at 1 uM after 10 mins by HPLC analysis
Type: ADME, cell-based
experimental setup: mg-63, 10 min
quantity measured: Drug uptake (%)

smiles str: C=C1/C(=C\C=C2/CCC[C@]3(C)[C@@H]([C@H](C)CC#C[C@H](O)C45CC6CC(CC(C6)C4)C5)CC[C@@H]23)C[C@@H](O)C[C@@H]1O
Drug uptake (%): 9.5

a = C=C1/C(=C\C=C2/CCC[C@]3(C)[C@@H]([C@H](C)CCCC(C)(C)O)CC[C@@H]23)C[C@@H](O)C[C@@H]1O
b = C=C1[C@H](O)CC(=C/C=C2\CCC[C@]3(C)[C@@H]([C@H](C)CC#C[C@@H](O)C45CC6CC(CC(C6)C4)C5)CC[C@@H]23)C[C@H]1O
c = C=C1/C(=C\C=C2/CCC[C@]3(C)[C@@H]([C@H](C)CC#C[C@@H](O)C45CC6CC(CC(C6)C4)C5)CC[C@@H]23)C[C@@H](O)C[C@@H]1O
// ascending sort on recorded Drug uptake Would you mind listing the labels in the order asked for? a, c, b
(a: 2.3%, c: 6%, b: 9.7%)

All figures here come from ChEMBL document CHEMBL4130637.
